Target Entity: AHR (Homo sapiens, UniProt P35869)
Construct: U87 MG glioblastoma cells (ATCC #HTB-14) endogenously expressing AHR; endogenous in cells; host or cells: U87 MG glioblastoma cells (ATCC #HTB-14)
Assay Protocol: In vitro assay 1: antagonism in human cell line (AHR transactivation, firefly luciferase reporter, kynurenic acid prestimulated)
Assay type: cell-based
Condition Notes: AHR Antagonism Human IC50 [M]
# IC50 per record follows
Your answer is read as M, so omit the unit and give the number.

The following compounds have reported results that may help.
>>> df
                                   compound  readout_name  observed_measurement
0  O=C1NCCCC[C@H]1Nc1nc2ccccc2c2nc(-c3cccc(OC(F)(F)F)c3)nn12 [Example 309]          IC50              2.47e-08
1  COc1ccc(-c2nc3c4ccc(C#N)cc4nc(N[C@@H]4CCCCNC4=O)n3n2)cc1 [Example 400]          IC50              4.16e-08
2  CS(=O)(=O)c1ccc(-c2nc3c4ccccc4nc(N[C@@H]4CCCCNC4=O)n3n2)cc1 [Example 372]          IC50              8.65e-09
3  CCNC(=O)C(CC)Nc1nc2ccccc2c2nc(-c3cccc(OC(F)(F)F)c3)nn12 (single isomer, unassigned) [Example 319]          IC50              1.74e-08
4  CCNC(=O)C(CC)Nc1nc2ccccc2c2nc(-c3cccc(OC(F)(F)F)c3)nn12 (centres unmarked) [Example 318]          IC50              1.29e-08
5  N#Cc1cccc(-c2nc3c4ccccc4nc(N[C@@H]4CCNC4=O)n3n2)c1 [Example 383]          IC50              1.39e-07

Next item in the queue.
Task: Name the recorded IC50 for O=C1NCCNC[C@H]1Nc1nc2ccccc2c2nc(-c3ccco3)nn12 [Example 258] .
Result: 7.15e-07

###

Target Entity: AHR (Mus musculus)
Sequence (P30561 whole entry P471L/N533S/M589L, form open): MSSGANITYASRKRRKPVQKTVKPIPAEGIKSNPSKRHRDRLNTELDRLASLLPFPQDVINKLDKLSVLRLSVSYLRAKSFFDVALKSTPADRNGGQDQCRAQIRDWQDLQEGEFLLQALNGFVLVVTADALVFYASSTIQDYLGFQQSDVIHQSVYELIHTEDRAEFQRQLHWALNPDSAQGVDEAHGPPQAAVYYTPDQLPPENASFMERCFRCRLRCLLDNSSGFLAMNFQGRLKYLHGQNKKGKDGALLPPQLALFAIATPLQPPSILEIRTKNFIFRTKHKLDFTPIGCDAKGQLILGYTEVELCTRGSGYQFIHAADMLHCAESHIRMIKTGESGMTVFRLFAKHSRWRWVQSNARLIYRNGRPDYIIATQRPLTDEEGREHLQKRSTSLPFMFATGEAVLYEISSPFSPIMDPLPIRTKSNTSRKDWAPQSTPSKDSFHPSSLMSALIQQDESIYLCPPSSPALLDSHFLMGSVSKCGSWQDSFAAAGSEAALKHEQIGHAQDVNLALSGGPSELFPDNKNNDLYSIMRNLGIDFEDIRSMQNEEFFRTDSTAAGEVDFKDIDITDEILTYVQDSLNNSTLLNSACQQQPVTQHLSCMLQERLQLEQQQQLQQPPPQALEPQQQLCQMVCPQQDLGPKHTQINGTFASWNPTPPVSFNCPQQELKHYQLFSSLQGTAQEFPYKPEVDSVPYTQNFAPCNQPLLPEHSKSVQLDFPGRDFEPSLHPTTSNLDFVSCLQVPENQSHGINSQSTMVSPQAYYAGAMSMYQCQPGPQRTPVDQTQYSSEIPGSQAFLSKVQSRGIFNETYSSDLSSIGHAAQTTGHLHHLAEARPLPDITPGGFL
Assay Protocol: In vitro assay 3: antagonism in mouse cell line (AHR transactivation, firefly luciferase reporter, kynurenic acid prestimulated)
Assay type: cell-based
Condition Notes: mouse Hepa 1c1c7 cells, 200 μM kynurenic acid, 20 hours, read-out: AHR Antagonism Mouse IC50
Readout Name: IC50 (nM)
Your answer is read as nM, so omit the unit and give the number.

The following compounds have reported results that may help.
In [3]: df
Out[3]:
                                   compound  readout_name  measurement_unit  observed_measurement
0  Cn1cc(-c2nc3c4c(Cl)cccc4nc(N[C@@H]4CNCCNC4=O)n3n2)cn1 [Example 417]          IC50                nM                  7300
1  CSc1cccc(-c2nc3c4ccccc4nc(N[C@@H]4CCCCNC4=O)n3n2)c1 [Example 449]          IC50                nM                    21
2  CCC[C@@H](Nc1nc2ccccc2c2nc(-c3cscc3OC)nn12)C(=O)NC [Example 339]          IC50                nM                   169
3  CC[C@@H](Nc1nc2ccccc2c2nc(-c3ccc(Cl)cc3OC(F)(F)F)nn12)C(N)=O [Example 523]          IC50                nM                  0.84
4  CCC[C@@H](Nc1nc2ccccc2c2nc(-c3cccc(OC(F)(F)F)c3)nn12)C(=O)NC [Example 316]          IC50                nM                  3.76

Task: Name the recorded IC50 for CNC(=O)[C@H](C)Nc1nc2ccccc2c2nc(-c3cccc(OC)c3)nn12 [Example 102] .
Result: 246

Task: Name the recorded IC50 for N#Cc1ccc(-c2nc3c4cccc(Br)c4nc(N[C@H]4CCCCNC4=O)n3n2)cc1 [Example 559] .
Result: 10.4

Task: Name the recorded IC50 for O=C1NCCC[C@H]1Nc1nc2ccccc2c2nc(-c3ccc(Cl)cc3OC(F)(F)F)nn12 [Example 519] .
Result: 22.2

###

Target Entity: AHR (Homo sapiens)
Construct: U87 MG glioblastoma cells (ATCC #HTB-14) endogenously expressing AHR; endogenous in cells; host or cells: U87 MG glioblastoma cells (ATCC #HTB-14)
Assay Protocol: In vitro assay 1: antagonism in human cell line (AHR transactivation, firefly luciferase reporter, kynurenic acid prestimulated)
Type: cell-based
Condition Notes: AHR Antagonism Human IC50 [M]
Readout Name: IC50 (M)
Your answer is read as M, so omit the unit and give the number.

The following compounds have reported results that may help.
>>> df
                         structure_notation       target_entity  observed_measurement
0  CCCNC(=O)[C@@H](C)Nc1nc2ccccc2c2nc(-c3cc(F)ccc3OC(F)(F)F)nn12  AHR (Homo sapiens)              7.03e-08
1  COc1ccc(-c2nc3c4ccc(C(C)C)cc4nc(N[C@@H]4CCCCNC4=O)n3n2)cc1  AHR (Homo sapiens)                 3e-07
2  O=C1NCCCC[C@H]1Nc1nc2ccccc2c2nc(-c3cnccc3C(F)(F)F)nn12  AHR (Homo sapiens)              4.25e-08
3  COc1ccc(-c2nc3c4cccc(C#N)c4nc(N[C@@H]4CCCCNC4=O)n3n2)cc1  AHR (Homo sapiens)              2.47e-09
4  COc1cccc(-c2nc3c4ccccc4nc(N[C@H](CCS(C)(=O)=O)C(N)=O)n3n2)c1  AHR (Homo sapiens)              1.58e-05
5  Cc1cc2c(cc1C(F)F)nc(N[C@@H]1CCCCNC1=O)n1nc(-c3cnn(C)c3)nc21  AHR (Homo sapiens)              3.41e-07
6  C[C@@H](Nc1nc2c(Br)cccc2c2nc(-c3cnn(C)c3)nn12)C(=O)NCCN1CCOCC1  AHR (Homo sapiens)              1.29e-07
7  Cc1cc(-c2nc3c4ccccc4nc(N[C@@H]4CCCCNC4=O)n3n2)n[nH]1  AHR (Homo sapiens)              6.33e-08

Next item in the queue.
Task: Name the recorded IC50 for N#Cc1ccc(-c2nc3c4ccccc4nc(N[C@@H]4CCCCNC4=O)n3n2)cc1 .
Result: 7.93e-10

###

# IC50 per record follows
Target Entity: AHR (Homo sapiens)
Construct: U87 MG glioblastoma cells (ATCC #HTB-14) endogenously expressing AHR; endogenous in cells; host or cells: U87 MG glioblastoma cells (ATCC #HTB-14)
Sequence (P35869 11-848): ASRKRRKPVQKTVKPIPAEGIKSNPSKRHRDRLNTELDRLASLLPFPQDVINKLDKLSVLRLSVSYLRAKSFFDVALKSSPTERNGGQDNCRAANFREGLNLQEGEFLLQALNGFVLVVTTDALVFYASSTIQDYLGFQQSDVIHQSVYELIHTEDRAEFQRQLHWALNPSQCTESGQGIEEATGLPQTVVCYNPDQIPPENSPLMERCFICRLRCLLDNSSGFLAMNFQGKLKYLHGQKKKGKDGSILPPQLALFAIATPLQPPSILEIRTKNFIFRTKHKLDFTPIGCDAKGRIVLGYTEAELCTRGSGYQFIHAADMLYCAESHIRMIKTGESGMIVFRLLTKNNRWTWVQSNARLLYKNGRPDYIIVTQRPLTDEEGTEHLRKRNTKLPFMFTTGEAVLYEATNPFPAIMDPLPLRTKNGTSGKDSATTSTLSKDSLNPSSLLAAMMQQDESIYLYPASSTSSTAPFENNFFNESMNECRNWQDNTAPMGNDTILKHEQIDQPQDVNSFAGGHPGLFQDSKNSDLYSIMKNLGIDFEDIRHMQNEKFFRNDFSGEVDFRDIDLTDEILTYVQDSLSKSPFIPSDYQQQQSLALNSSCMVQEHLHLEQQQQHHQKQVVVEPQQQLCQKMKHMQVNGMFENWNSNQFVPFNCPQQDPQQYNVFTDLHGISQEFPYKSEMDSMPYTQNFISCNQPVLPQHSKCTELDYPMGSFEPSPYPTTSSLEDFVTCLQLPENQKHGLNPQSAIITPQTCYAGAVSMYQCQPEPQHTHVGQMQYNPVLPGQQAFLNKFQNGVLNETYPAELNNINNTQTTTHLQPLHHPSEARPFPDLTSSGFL
Assay Protocol: In vitro assay 1: antagonism in human cell line (AHR transactivation, firefly luciferase reporter, kynurenic acid prestimulated)
Type: cell-based
Condition Notes: AHR Antagonism Human IC50 [M]
Your answer is read as M, so omit the unit and give the number.

The following compounds have reported results that may help.
In [3]: df
Out[3]:
                                   compound  observed_measurement
0  Cc1ccc2nc(N[C@@H]3CCCCNC3=O)n3nc(-c4cnn(C)c4)nc3c2c1 [Example 158]              1.77e-08
1  Cc1cscc1-c1nc2c3ccccc3nc(N[C@@H]3CCCCNC3=O)n2n1 [Example 538]              8.79e-10
2  O=C1NCCCC[C@H]1Nc1nc2ccccc2c2nc(-c3cnn(CC4CC4)c3)nn12 [Example 602]              6.81e-09
3  CCC[C@@H](Nc1nc2c(Br)cccc2c2nc(-c3ccc(C#N)cc3)nn12)C(=O)NC [Example 562]              1.37e-09
4  O=C1NCCCC[C@H]1Nc1nc2ccccc2c2nc(-c3nc(C4CC4)no3)nn12 [Example 135]              2.77e-08
5  CC[C@@H](Nc1nc2ccccc2c2nc(-c3cc(Cl)ccc3OC(F)(F)F)nn12)C(N)=O [Example 504]              3.65e-07
6  CCSc1cccc2c1nc(N[C@@H]1CCCCNC1=O)n1nc(-c3ccc(OC)cc3)nc21 [Example 770]              4.04e-09
7  CC[C@@H](Nc1nc2ccccc2c2nc(-c3cccnc3C(F)(F)F)nn12)C(N)=O [Example 489]              4.24e-07
8  CN1CC[C@@H](Nc2nc3ccccc3c3nc(-c4cccc(OC(F)(F)F)c4)nn23)C1=O [Example 312]              7.19e-08
9  COc1ccc(-c2nc3c4cccc(C(C)C)c4nc(N[C@@H]4CNCCNC4=O)n3n2)cc1 [Example 429]               7.8e-09

Next item in the queue.
Task: Name the recorded IC50 for N#Cc1cccc2c1nc(N[C@@H]1CCCCNC1=O)n1nc(-c3ccc(F)cc3)nc21 [Example 402] .
Result: 8.32e-09

Source listed as patent US20230113037A1.
